# ASSAY_SYSTEM: Human Scribble (SCRIB) PDZ1 domain (728-815) (human, UniProt Q14160 728-815)
# Sequence (Q14160 728-815): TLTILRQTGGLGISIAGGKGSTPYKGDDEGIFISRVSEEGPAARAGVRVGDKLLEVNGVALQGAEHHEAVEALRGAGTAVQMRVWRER
# ASSAY_REMARKS: ITC
QUANTITY_MEASURED: Kd

RSWFETWV [Superpeptide (RSWFETWV)] = 600 nM
